Target: 5-HT2C (Homo sapiens)
Sequence (P28335 33-458): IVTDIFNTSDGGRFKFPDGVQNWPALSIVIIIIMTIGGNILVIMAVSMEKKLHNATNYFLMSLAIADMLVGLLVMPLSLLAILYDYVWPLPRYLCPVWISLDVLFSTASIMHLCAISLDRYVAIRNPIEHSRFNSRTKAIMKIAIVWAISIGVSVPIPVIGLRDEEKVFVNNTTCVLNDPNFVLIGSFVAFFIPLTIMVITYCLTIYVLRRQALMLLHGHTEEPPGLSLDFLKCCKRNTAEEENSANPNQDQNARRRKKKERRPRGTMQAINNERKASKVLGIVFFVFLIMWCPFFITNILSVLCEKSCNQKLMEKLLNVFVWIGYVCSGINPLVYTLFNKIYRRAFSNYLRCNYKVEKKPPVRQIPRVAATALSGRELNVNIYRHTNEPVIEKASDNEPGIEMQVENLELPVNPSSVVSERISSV
measurement-type: Ki (µM)

1. Cn1cnc([N+](=O)[O-])c1Sc1nnc2n(CC3CC3)c(=O)c3sc(Cl)cc3n12 [Compound 20]: 1.3
